- Test system: U2OS
- assay details: Anticancer activity against human U2OS cells assessed as reduction in cell proliferation after 48 hrs by WST-1 assay
- Type: functional, cell-based
pIC50: −log10 of the molar value.
The compounds listed here are annotated with their pIC50.

Here's what some known entries look like.
query smiles	measure name	endpoint result
COc1cc(-c2ccc(OC)c(OC)c2OC)ccc1O	pIC50	< 4.70
COc1ccc(-c2ccc(OC)c(OC)c2OC)cc1O	pIC50	< 4.70

Tell me the measured pIC50 of COc1ccc(/C=C\c2cc(OC)c(OC)c(OC)c2)cc1O , please.
7.85

---

- Tested on: Jurkat E6.1
- assay details: Anticancer activity against human Jurkat E6-1 cells assessed as reduction in cell proliferation after 48 hrs by WST-1 assay
- Assay type: functional, cell-based
- experimental conditions: Jurkat E6.1, 48 h
The compounds listed here are annotated with their pIC50.
In plain terms, pIC50 is the concentration in mol/L turned into minus its base-10 logarithm.

query smiles	study system	measure name	endpoint result
COc1cc(-c2ccc(OC)c(OC)c2OC)ccc1O	Jurkat E6.1	pIC50	6.31
COc1ccc(/C=C\c2cc(OC)c(OC)c(OC)c2)cc1O	Jurkat E6.1	pIC50	8.22

// moving on: another record for pIC50
Tell me the measured pIC50 of COc1ccc(-c2ccc(OC)c(OC)c2OC)cc1O , please.
6.02

Data origin: ChEMBL document CHEMBL3585301
